- tested.on: Human Glucocorticoid receptor (Homo sapiens, UniProt P04150)
- Sequence (P04150 1-777): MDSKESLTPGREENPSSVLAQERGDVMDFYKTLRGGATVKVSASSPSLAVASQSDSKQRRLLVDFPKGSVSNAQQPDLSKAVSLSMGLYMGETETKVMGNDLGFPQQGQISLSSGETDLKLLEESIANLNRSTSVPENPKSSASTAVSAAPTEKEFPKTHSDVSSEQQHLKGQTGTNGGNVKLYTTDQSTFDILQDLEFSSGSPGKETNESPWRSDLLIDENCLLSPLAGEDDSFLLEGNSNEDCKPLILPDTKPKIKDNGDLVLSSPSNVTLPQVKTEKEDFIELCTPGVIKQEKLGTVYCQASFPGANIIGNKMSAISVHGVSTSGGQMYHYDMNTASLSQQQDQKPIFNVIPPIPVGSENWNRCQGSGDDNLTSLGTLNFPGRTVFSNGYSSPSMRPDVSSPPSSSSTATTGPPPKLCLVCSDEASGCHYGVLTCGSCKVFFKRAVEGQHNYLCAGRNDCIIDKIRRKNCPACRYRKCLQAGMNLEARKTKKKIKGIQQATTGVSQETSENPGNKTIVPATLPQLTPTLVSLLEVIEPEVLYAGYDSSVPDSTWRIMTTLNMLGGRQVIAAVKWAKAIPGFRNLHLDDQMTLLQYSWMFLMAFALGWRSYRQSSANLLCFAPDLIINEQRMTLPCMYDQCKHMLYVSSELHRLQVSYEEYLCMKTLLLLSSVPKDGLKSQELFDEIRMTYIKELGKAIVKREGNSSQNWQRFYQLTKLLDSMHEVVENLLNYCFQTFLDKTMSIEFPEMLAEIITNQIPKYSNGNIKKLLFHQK

compound	IC50 / nM
C[C@@H]1CC2C3C[C@H](F)C4=CC(=O)C=C[C@]4(C)[C@@]3(F)[C@@H](O)C[C@]2(C)[C@@]1(OC(=O)c1ccco1)C(=O)SCC#CCOC(=O)CC(C)(C)F (stereo partly shown)	2.3

----------
- tested.on: Progesterone receptor (Homo sapiens)
- Sequence (P06401 whole entry): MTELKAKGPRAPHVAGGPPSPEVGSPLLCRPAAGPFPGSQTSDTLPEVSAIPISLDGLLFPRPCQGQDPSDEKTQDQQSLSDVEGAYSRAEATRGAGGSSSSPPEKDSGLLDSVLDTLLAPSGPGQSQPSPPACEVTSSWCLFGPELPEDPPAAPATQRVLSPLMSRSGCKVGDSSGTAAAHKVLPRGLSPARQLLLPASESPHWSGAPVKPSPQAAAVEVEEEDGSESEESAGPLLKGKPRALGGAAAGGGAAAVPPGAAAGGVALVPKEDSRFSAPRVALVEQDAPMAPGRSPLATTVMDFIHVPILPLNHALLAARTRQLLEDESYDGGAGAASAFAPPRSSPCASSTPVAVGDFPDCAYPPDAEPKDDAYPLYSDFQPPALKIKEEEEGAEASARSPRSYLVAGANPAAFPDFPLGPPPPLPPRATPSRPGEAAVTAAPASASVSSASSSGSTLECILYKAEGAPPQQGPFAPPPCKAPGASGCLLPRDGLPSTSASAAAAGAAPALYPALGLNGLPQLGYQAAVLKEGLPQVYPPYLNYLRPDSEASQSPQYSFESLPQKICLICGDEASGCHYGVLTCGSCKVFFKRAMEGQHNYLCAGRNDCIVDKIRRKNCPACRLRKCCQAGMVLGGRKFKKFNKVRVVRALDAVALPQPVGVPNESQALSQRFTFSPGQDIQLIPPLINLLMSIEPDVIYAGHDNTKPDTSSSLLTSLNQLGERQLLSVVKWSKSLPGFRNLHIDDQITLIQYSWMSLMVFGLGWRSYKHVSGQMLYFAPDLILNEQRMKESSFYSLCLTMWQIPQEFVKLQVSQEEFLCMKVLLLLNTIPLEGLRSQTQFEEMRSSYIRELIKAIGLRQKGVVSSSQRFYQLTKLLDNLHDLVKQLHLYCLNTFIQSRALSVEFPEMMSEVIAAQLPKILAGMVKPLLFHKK

compound	IC50, nM
C[C@@H]1CC2C3C[C@H](F)C4=CC(=O)C=C[C@]4(C)[C@@]3(F)[C@@H](O)C[C@]2(C)[C@@]1(OC(=O)c1ccco1)C(=O)SCC#CCOC(=O)CC(C)(C)F (stereo partly shown)	8.52

----------
- tested.on: Aldosterone receptor (Rattus norvegicus)
- Sequence (P22199 whole entry): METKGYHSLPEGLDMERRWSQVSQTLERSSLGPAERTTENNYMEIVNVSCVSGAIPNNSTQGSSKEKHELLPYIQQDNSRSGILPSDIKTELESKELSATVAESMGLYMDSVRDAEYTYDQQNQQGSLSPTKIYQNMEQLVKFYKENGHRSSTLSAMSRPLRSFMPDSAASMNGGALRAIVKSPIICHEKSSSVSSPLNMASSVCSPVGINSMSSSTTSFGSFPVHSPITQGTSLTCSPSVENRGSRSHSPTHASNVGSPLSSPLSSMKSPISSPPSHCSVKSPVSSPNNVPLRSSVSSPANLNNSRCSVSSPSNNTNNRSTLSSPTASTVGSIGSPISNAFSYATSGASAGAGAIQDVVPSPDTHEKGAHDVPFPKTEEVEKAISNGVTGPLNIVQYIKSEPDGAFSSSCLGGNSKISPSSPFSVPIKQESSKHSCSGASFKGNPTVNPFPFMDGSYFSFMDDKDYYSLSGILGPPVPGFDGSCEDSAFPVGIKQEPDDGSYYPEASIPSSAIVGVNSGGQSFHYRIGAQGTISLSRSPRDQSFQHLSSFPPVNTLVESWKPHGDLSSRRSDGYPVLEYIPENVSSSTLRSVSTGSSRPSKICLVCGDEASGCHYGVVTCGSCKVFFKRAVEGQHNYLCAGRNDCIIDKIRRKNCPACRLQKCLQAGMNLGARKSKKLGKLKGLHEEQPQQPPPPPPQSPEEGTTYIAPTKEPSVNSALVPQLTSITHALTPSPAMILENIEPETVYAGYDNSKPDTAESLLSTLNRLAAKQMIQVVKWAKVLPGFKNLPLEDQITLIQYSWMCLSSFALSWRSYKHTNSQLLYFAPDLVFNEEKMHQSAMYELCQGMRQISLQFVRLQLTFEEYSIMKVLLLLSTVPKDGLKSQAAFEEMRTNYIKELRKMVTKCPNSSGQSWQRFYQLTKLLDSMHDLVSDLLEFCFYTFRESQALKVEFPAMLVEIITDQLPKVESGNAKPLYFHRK

compound	unit.of.measure	Ki
C[C@@H]1CC2C3C[C@H](F)C4=CC(=O)C=C[C@]4(C)[C@@]3(F)[C@@H](O)C[C@]2(C)[C@@]1(OC(=O)c1ccco1)C(=O)SCC#CCOC(=O)CC(C)(C)F (stereo partly shown)	nM	256

----------
- Tested on: liver glycogen deposition
- method.summary: Liver glycogen deposition
- Type: in vivo, Male Sprague Dawley rats
- assay.context: 3 mg/kg intratracheal, 2 doses 24 hrs apart, adrenalectomized rats
measurement.type: % Inhibition of thymus (%)

molecule	unit.of.measure	numeric.readout
C[C@@H]1CC2C3C[C@H](F)C4=CC(=O)C=C[C@]4(C)[C@@]3(F)[C@@H](O)C[C@]2(C)[C@@]1(OC(=O)c1ccco1)C(=O)SCC#CCOC(=O)CC(C)(C)F (some centres unmarked) [Formula I]	%	26.15
C[C@@H]1C[C@H]2[C@@H]3CCC4=CC(=O)C=C[C@]4(C)[C@@]3(Cl)[C@@H](O)C[C@]2(C)[C@@]1(OC(=O)c1ccco1)C(=O)CCl [Mometasone furoate]	%	43.51
CC(C)C(=O)OCC(=O)[C@@]12O[C@H](C3CCCCC3)O[C@@H]1C[C@H]1[C@@H]3CCC4=CC(=O)C=C[C@]4(C)[C@H]3[C@@H](O)C[C@@]12C [Ciclesonide]	%	61.34
CCCC1O[C@@H]2C[C@H]3[C@@H]4CCC5=CC(=O)C=C[C@]5(C)[C@H]4[C@@H](O)C[C@]3(C)[C@]2(C(=O)CO)O1 (some centres unmarked) [Budesonide]	%	65.02
CCC(=O)O[C@]1(C(=O)SCF)[C@H](C)C[C@H]2[C@@H]3C[C@H](F)C4=CC(=O)C=C[C@]4(C)[C@@]3(F)[C@@H](O)C[C@@]21C [Fluticasone propionate]	%	70.17

----------
Target chain: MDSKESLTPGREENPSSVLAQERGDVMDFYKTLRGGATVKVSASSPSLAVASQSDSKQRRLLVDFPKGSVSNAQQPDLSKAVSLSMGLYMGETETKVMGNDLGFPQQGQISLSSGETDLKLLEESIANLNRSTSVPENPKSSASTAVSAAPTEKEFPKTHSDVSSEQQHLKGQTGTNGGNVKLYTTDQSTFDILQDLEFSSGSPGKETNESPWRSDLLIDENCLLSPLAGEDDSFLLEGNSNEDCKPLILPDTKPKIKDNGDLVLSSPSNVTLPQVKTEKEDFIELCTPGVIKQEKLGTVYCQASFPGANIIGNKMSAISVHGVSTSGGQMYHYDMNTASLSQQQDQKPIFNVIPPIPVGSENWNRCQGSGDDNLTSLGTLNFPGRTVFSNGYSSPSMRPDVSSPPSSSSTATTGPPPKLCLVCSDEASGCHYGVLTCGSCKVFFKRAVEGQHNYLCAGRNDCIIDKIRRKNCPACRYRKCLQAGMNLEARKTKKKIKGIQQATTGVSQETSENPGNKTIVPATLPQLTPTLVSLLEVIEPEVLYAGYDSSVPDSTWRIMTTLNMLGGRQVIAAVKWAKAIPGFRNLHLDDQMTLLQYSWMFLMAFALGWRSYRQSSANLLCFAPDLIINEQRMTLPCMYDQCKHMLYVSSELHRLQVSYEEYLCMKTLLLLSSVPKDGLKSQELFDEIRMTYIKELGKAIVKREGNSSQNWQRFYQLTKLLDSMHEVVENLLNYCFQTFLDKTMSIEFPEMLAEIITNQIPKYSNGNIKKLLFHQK
measurement.type: Ki (nM)

compound	unit.of.measure	numeric.readout
C[C@@H]1CC2C3C[C@H](F)C4=CC(=O)C=C[C@]4(C)[C@@]3(F)[C@@H](O)C[C@]2(C)[C@@]1(OC(=O)c1ccco1)C(=O)SCC#CCOC(=O)CC(C)(C)F (stereo partly shown)	nM	1.24

----------
Reported Glycogen content by item:
- Test system: liver glycogen deposition
- method.summary: Liver glycogen deposition
- Type: in vivo, Male Sprague Dawley rats
- assay.context: 3 mg/kg intratracheal, 2 doses 24 hrs apart, adrenalectomized rats

compound	Glycogen content, mg/100 g liver
C[C@@H]1CC2C3C[C@H](F)C4=CC(=O)C=C[C@]4(C)[C@@]3(F)[C@@H](O)C[C@]2(C)[C@@]1(OC(=O)c1ccco1)C(=O)SCC#CCOC(=O)CC(C)(C)F (some centres unmarked)	10.68
C[C@@H]1C[C@H]2[C@@H]3CCC4=CC(=O)C=C[C@]4(C)[C@@]3(Cl)[C@@H](O)C[C@]2(C)[C@@]1(OC(=O)c1ccco1)C(=O)CCl [Mometasone furoate]	1117.32
CC(C)C(=O)OCC(=O)[C@@]12O[C@H](C3CCCCC3)O[C@@H]1C[C@H]1[C@@H]3CCC4=CC(=O)C=C[C@]4(C)[C@H]3[C@@H](O)C[C@@]12C [Ciclesonide]	263.96
CCCC1O[C@@H]2C[C@H]3[C@@H]4CCC5=CC(=O)C=C[C@]5(C)[C@H]4[C@@H](O)C[C@]3(C)[C@]2(C(=O)CO)O1 (some centres unmarked) [Budesonide]	552.77
CCC(=O)O[C@]1(C(=O)SCF)[C@H](C)C[C@H]2[C@@H]3C[C@H](F)C4=CC(=O)C=C[C@]4(C)[C@@]3(F)[C@@H](O)C[C@@]21C [Fluticasone propionate]	1514.65
